Where do these numbers come from? They come from paper PMC8346996.

Kindly supply the reported second-order rate constant k2 for the reaction with DPPH• values for the records listed here.
assay: DPPH• scavenging kinetics by UV-vis, pseudo-first-order conditions; conditions: ethanol, 298 K, deaerated, DPPH• 2.2 × 10^−4 M, surfactant 0.012-0.12 M
Answers are plain numbers, in M⁻¹ s⁻¹.

Below are worked cases with known answers.
CCCCCCCCCCCCCC(=O)NCCC[N+](C)(C)[O-]: 0.00101
CCCCCCCCCCCCCCCC(=O)NCCC[N+](C)(C)[O-]: 0.00125

Each molecule below has a reported value. Please supply its second-order rate constant k2 for the reaction with DPPH•.
1. CCCCCCCCCCCCCC(=O)N(CCC[N+](C)(C)[O-])CCC[N+](C)(C)[O-]
2. CCCCCCCCCCCC(=O)N(CCC[N+](C)(C)[O-])CCC[N+](C)(C)[O-]
3. CCCCCCCCCCCCCCCC(=O)N(CCC[N+](C)(C)[O-])CCC[N+](C)(C)[O-]
4. CCCCCCCCCC(=O)N(CCC[N+](C)(C)[O-])CCC[N+](C)(C)[O-]
5. CCCCCCCCCC(=O)NCCC[N+](C)(C)[O-]

[0.00117, 0.00108, 0.00138, 0.000947, 0.000853]

Briefly, second-order rate constant k2 for the reaction with DPPH• measured for CCCCCCCCCCCC(=O)NCCC[N+](C)(C)[O-] : 0.000905

###

assay: Hydrodynamic radius of micelles by dynamic light scattering (DLS); format: physicochemical; details: 298 K, surfactant at 100 x CMC
assay endpoint: RH DLS

Example molecules with recorded RH DLS:
CCCCCCCCCCCCCCCC(=O)NCCC[N+](C)(C)[O-]: 2.27 nm
CCCCCCCCCCCCCC(=O)NCCC[N+](C)(C)[O-]: 2.19 nm
CCCCCCCCCCCC(=O)NCCC[N+](C)(C)[O-]: 1.96 nm

For CCCCCCCCCC(=O)NCCC[N+](C)(C)[O-] the molecule record lists RH DLS as 1.67 nm

###

Field: IC50. Provide a value for each of the compounds that follow.
tested on: primary fibroblasts (HGFs); assay: MTT cell viability assay, HGFs; format: cell-based, human; conditions: Homo sapiens, Fibroblast; MTT, 24 h incubation; read-out: IC50 HGFs 24 h
Could you kindly put the unit after your number?

Sample records with IC50:
CCCCCCCCCCCCCCCC(=O)NCCC[N+](C)(C)[O-]: 44.1 µg/mL
CCCCCCCCCC(=O)NCCC[N+](C)(C)[O-]: 77.9 µg/mL
CCCCCCCCCC(=O)N(CCC[N+](C)(C)[O-])CCC[N+](C)(C)[O-]: 34.5 µg/mL

For each entry beneath this line, provide reported IC50.
1. CCCCCCCCCCCC(=O)NCCC[N+](C)(C)[O-]
2. CCCCCCCCCCCC(=O)N(CCC[N+](C)(C)[O-])CCC[N+](C)(C)[O-]
3. CCCCCCCCCCCCCCCC(=O)N(CCC[N+](C)(C)[O-])CCC[N+](C)(C)[O-]
4. CCCCCCCCCCCCCC(=O)NCCC[N+](C)(C)[O-]
5. CCCCCCCCCCCCCC(=O)N(CCC[N+](C)(C)[O-])CCC[N+](C)(C)[O-]

1. 51.9 µg/mL
2. 27.9 µg/mL
3. 14.3 µg/mL
4. 69.9 µg/mL
5. 68.5 µg/mL
